# TARGET_UNDER_TEST: c-Myc template DNA (c-myc quadruplex)
# TEST_METHOD_NOTES: Quadruplex binding / stop assay (Taq polymerase arrest, capillary electrophoresis)
# SETTINGS: read-out: Stop Data c-Myc μM; concentration at which 50% of the DNA was arrested (arrested:full-length 1:1)

COMPOUND: CN1CCN(CCCNC(=O)c2cn3c4c(c(NCCN5CCOCC5)c(F)cc4c2=O)Oc2cc4ccccc4cc2-3)CC1 [compound 55]
UNITS: µM
IC50: 2.5

COMPOUND: CN1CCCC1CCNc1c(F)cc2c(=O)c(C(=O)NCCN3CCCC3)cn3c2c1Oc1cc2ccccc2cc1-3 (stereo not drawn) [compound 488]
UNITS: µM
IC50: 0.5

COMPOUND: CC(C)(C)OC(=O)N[C@@H]1CCN(C(=O)c2cn3c4c(c(NCCN5CCCC5)c(F)cc4c2=O)Oc2cc4ccccc4cc2-3)C1 [compound 72]
UNITS: µM
IC50: 2.5

###

# System: HeLa cells
# TEST_METHOD_NOTES: MTS cell proliferation and/or cytotoxicity assay
# Assay type: cell-based, Human
# SETTINGS: Homo sapiens, HeLa, 72 h, concentration at which 50% of antiproliferative cell response is seen; 3 days incubation; read-out: MTS Data Hella
Overview of recorded IC50 for various compounds
MEASURED_QUANTITY: IC50 (nM)

COMPOUND: CN1CCN(CCCNC(=O)c2cn3c4c(c(N5CC[C@@H](NC(=O)CCN6CCCCC6)C5)c(F)cc4c2=O)Oc2cc4c(cc2-3)oc2ccccc24)CC1 [compound 508]
TARGET_UNDER_TEST: HeLa cells
MEASURED_QUANTITY: IC50
UNITS: nM
OBSERVED_VALUE: 3200
//
COMPOUND: O=C(NCCN1CCOCC1)c1cn2c3c(c(NCCCN4CCOCC4)c(F)cc3c1=O)Oc1cc3c(cc1-2)oc1ccccc13 [compound 361]
TARGET_UNDER_TEST: HeLa cells
MEASURED_QUANTITY: IC50
UNITS: nM
OBSERVED_VALUE: 4200
//
COMPOUND: CN(C)CCCCNc1c(F)cc2c(=O)c(C(=O)NCCC3CCCN3C)cn3c4cc5oc6cc([N+](=O)[O-])ccc6[nH]c5cc4oc1c23 (stereo not drawn) [compound 569]
TARGET_UNDER_TEST: HeLa cells
MEASURED_QUANTITY: IC50
UNITS: nM
OBSERVED_VALUE: 7800
//
COMPOUND: N[C@H]1CCN(c2c(F)cc3c(=O)c(C(=O)NCCN4CCCC4)cn4c5cc6c(cc5oc2c34)c(=O)c2ccccc26)C1 [compound 583]
TARGET_UNDER_TEST: HeLa cells
MEASURED_QUANTITY: IC50
UNITS: nM
OBSERVED_VALUE: 250
//
COMPOUND: CN1CCCC1CCNC(=O)c1cn2c3c(c(NCC4CC(C)(C)N(O)C4(C)C)c(F)cc3c1=O)Oc1cc3ccccc3cc1-2 (stereo not drawn) [compound 513]
TARGET_UNDER_TEST: HeLa cells
MEASURED_QUANTITY: IC50
UNITS: nM
OBSERVED_VALUE: 3100
//
COMPOUND: O=C(NCCN1CCCC1)c1cn2c3c(c(NCCCN4CCOCC4)c(F)cc3c1=O)Oc1cc3c(O)ncnc3cc1-2 [compound 107]
TARGET_UNDER_TEST: HeLa cells
MEASURED_QUANTITY: IC50
UNITS: nM
OBSERVED_VALUE: 1800
//
COMPOUND: CCN(CC)CCCC(C)NC(=O)c1cn2c3c(c(N4CC5CCCNC5C4)c(F)cc3c1=O)Oc1cc3ccccc3cc1-2 (stereo not drawn) [compound 385]
TARGET_UNDER_TEST: HeLa cells
MEASURED_QUANTITY: IC50
UNITS: nM
OBSERVED_VALUE: 360
//
COMPOUND: N[C@H]1CCN(c2c(F)cc3c(=O)c(C(=O)NCCN4CCCC4)cn4c3c2Oc2cc3ccccc3cc2-4)C1 [compound 341]
TARGET_UNDER_TEST: HeLa cells
MEASURED_QUANTITY: IC50
UNITS: nM
OBSERVED_VALUE: 280
//
COMPOUND: CN(C)CCCCNC(=O)c1cn2c3c(c(N4CCC(N)C4)c(F)cc3c1=O)Oc1cc3c(cc1-2)Cc1ccccc1-3 (stereo not drawn) [compound 532]
TARGET_UNDER_TEST: HeLa cells
MEASURED_QUANTITY: IC50
UNITS: nM
OBSERVED_VALUE: 440
//
COMPOUND: CN(C)CCCCNC(=O)c1cn2c3cc4c(=O)c5ccccc5c(=O)c4cc3oc3c(NCCN4CCCC4)c(F)cc(c1=O)c32 [compound 574]
TARGET_UNDER_TEST: HeLa cells
MEASURED_QUANTITY: IC50
UNITS: nM
OBSERVED_VALUE: 4000
//
COMPOUND: CN(C)CC(C)(C)CNC(=O)c1cn2c3c(c(N4CCC(N)C4)c(F)cc3c1=O)Oc1cc3ccccc3cc1-2 (stereo not drawn) [compound 531]
TARGET_UNDER_TEST: HeLa cells
MEASURED_QUANTITY: IC50
UNITS: nM
OBSERVED_VALUE: 480
//
COMPOUND: O=C(NCCN1CCCC1)c1cn2c3cc4c(=O)c5ccccc5c(=O)c4cc3oc3c(NCCN4CCCC4)c(F)cc(c1=O)c32 [compound 568]
TARGET_UNDER_TEST: HeLa cells
MEASURED_QUANTITY: IC50
UNITS: nM
OBSERVED_VALUE: 4100
//
COMPOUND: CC(C)NCCCNC(=O)c1cn2c3c(c(N4CCC(NC(=O)OC(C)(C)C)C4)c(F)cc3c1=O)Oc1cc3ccccc3cc1-2 (stereo not drawn) [compound 312]
TARGET_UNDER_TEST: HeLa cells
MEASURED_QUANTITY: IC50
UNITS: nM
OBSERVED_VALUE: 1900
//
COMPOUND: CC(C)NCCCNC(=O)c1cn2c3c(c(N4CCC(N)C4)c(F)cc3c1=O)Oc1cc3ccccc3cc1-2 (stereo not drawn) [compound 541]
TARGET_UNDER_TEST: HeLa cells
MEASURED_QUANTITY: IC50
UNITS: nM
OBSERVED_VALUE: 270
//
COMPOUND: CN1CCN(CC(=O)N[C@@H]2CCN(c3c(F)cc4c(=O)c(C(=O)NCCN5CCCC5)cn5c4c3Oc3cc4c(cc3-5)oc3ccccc34)C2)CC1 [compound 505]
TARGET_UNDER_TEST: HeLa cells
MEASURED_QUANTITY: IC50
UNITS: nM
OBSERVED_VALUE: 3400
//
COMPOUND: O=C(NCCCn1ccnc1)c1cn2c3c(c(NCCN4CCCC4)c(F)cc3c1=O)Oc1cc3c(cc1-2)oc1ccccc13 [compound 368]
TARGET_UNDER_TEST: HeLa cells
MEASURED_QUANTITY: IC50
UNITS: nM
OBSERVED_VALUE: 3600
//
COMPOUND: CN1CCCC1CCNC(=O)c1cn2c3c(c(NCCC4CCCN4C)c(F)cc3c1=O)Oc1cc3c(cc1-2)oc1ccccc13 (stereo not drawn) [compound 372]
TARGET_UNDER_TEST: HeLa cells
MEASURED_QUANTITY: IC50
UNITS: nM
OBSERVED_VALUE: 3400
//
COMPOUND: CC(C)(C)OC(=O)NC1CCN(c2c(F)cc3c(=O)c(C(=O)NCCN4CCCC4)cn4c3c2Oc2cc3c(cc2-4)oc2ccccc23)C1 (stereo not drawn) [compound 384]
TARGET_UNDER_TEST: HeLa cells
MEASURED_QUANTITY: IC50
UNITS: nM
OBSERVED_VALUE: 370

###

Overview of recorded IC50 for various compounds
# TARGET_UNDER_TEST: c-Myc template DNA (c-myc quadruplex)
# TEST_METHOD_NOTES: Quadruplex binding / stop assay (Taq polymerase arrest, capillary electrophoresis)
# SETTINGS: read-out: Stop Data c-Myc μM; concentration at which 50% of the DNA was arrested (arrested:full-length 1:1)

COMPOUND: CN1CCN(C(=O)c2cn3c4c(c(N5CC[C@@H](NC(=O)CNCCC6CCCN6C)C5)c(F)cc4c2=O)Oc2cc4c(cc2-3)oc2ccccc24)CC1 (stereo partly shown)
UNITS: µM
IC50: 0.75
//
COMPOUND: N[C@@H]1CCN(c2c(F)cc3c(=O)c(C(=O)NCCN4CCCC4)cn4c3c2Oc2c-4ccc3ccccc23)C1
UNITS: µM
IC50: 0.75
//
COMPOUND: CN(C)CCCCNC(=O)c1cn2c3c(c(N4CC5CCCNC5C4)c(F)cc3c1=O)Oc1cc3ccccc3cc1-2 (stereo not shown)
UNITS: µM
IC50: 0.375
//
COMPOUND: CN1CCN(CCCNC(=O)c2cn3c4c(c(NCCC5CCCN5C)c(F)cc4c2=O)Oc2c-3ccc3ccccc23)CC1 (stereo not shown)
UNITS: µM
IC50: 0.375
